Molecular target: Peroxisome proliferator-activated receptor gamma (Homo sapiens)
Assay: In vitro agonist activity against human PPAR-gamma in transactivation assay at 10 nM
Format: functional
parameter_measured: Fold activation
Please reply with the value in numeric form only.

Incoming: Provide the documented Fold activation with Peroxisome proliferator-activated receptor gamma (Homo sapiens) as the system for `CSc1cc(-c2ccc(OCCN(C)C)cc2)oc(=O)c1C#N`
Outgoing: 4

Incoming: Try the compound `CSc1cc(-c2ccc(OCCN(Cc3ccccc3)SC)cc2)oc(=O)c1C#N`
Outgoing: 4

Incoming: Note, next up: `CSc1cc(-c2ccc(OCCN3CCCCC3)cc2)oc(=O)c1C#N`
Outgoing: 3

Incoming: Another compound: `CSc1cc(-c2ccc(OCN3CCOCC3)cc2)oc(=O)c1C#N`
Outgoing: 3

Incoming: And the next one, `CSc1cc(-c2ccc(OCCSc3ccccc3)cc2)oc(=O)c1C#N` ?
Outgoing: 3

Incoming: `COC(=O)c1c(SC)cc(-c2ccc(OCCSC)cc2)oc1=O` ?
Outgoing: 9

Incoming: Same lookup for C[S+]([O-])CCOc1ccc(-c2cc([S+](C)[O-])c(C#N)c(=O)o2)cc1 (stereo not drawn) , please.
Outgoing: 9

Incoming: Also `CCSCCOc1ccc(-c2cc(SCC)c(C#N)c(=O)o2)cc1` , if possible.
Outgoing: 7

Incoming: Do the same for CN(CCOc1ccc(CC2SC(=O)NC2=O)cc1)c1ccccn1 (stereo not drawn) please
Outgoing: 9

Incoming: Entry to check: `CSCCOc1ccc(-c2cc(SC)c(C#N)c(=O)o2)cc1`
Outgoing: 12

Incoming: Field entry: `CSc1cc(-c2ccc(OCCN(C)Cc3ccccc3)cc2)oc(=O)c1C#N`
Outgoing: 5

Incoming: What about `CSc1cc(-c2ccc(OCCc3nccc4c3CCCC4)cc2)oc(=O)c1C#N` ?
Outgoing: 4

Incoming: What do we get for `COC(=O)c1c(SC)cc(-c2ccc(OCCN3CCCCC3)cc2)oc1=O` ?
Outgoing: 3

----------
Target: Peroxisome proliferator-activated receptor gamma (Homo sapiens) (UniProt P37231)
Experiment: In vitro agonist activity against human PPAR-gamma in transactivation assay at 100 nM
Type: functional
What Fold activation was measured for each of the following?
When you answer, write just the number.

Incoming: Would you mind telling me what Fold activation value was observed for `CSc1cc(-c2ccc(OCCN3CCCCC3)cc2)oc(=O)c1C#N` ?
Outgoing: 2

Incoming: Query `CSc1cc(-c2ccc(OCCN(Cc3ccccc3)SC)cc2)oc(=O)c1C#N` next
Outgoing: 6

Incoming: Lookup `CSc1cc(-c2ccc(OCCc3nccc4c3CCCC4)cc2)oc(=O)c1C#N`
Outgoing: 5

Incoming: Same read-out for `CSc1cc(-c2ccc(OCN3CCOCC3)cc2)oc(=O)c1C#N` ?
Outgoing: 4

Incoming: Item: `COC(=O)c1c(SC)cc(-c2ccc(OCCSC)cc2)oc1=O`
Outgoing: 13

Incoming: Next compound: `CSCCOc1ccc(-c2cc(SC)c(C#N)c(=O)o2)cc1`
Outgoing: 22

----------
Molecular target: Peroxisome proliferator-activated receptor gamma (Homo sapiens) (UniProt P37231)
Sequence (whole entry): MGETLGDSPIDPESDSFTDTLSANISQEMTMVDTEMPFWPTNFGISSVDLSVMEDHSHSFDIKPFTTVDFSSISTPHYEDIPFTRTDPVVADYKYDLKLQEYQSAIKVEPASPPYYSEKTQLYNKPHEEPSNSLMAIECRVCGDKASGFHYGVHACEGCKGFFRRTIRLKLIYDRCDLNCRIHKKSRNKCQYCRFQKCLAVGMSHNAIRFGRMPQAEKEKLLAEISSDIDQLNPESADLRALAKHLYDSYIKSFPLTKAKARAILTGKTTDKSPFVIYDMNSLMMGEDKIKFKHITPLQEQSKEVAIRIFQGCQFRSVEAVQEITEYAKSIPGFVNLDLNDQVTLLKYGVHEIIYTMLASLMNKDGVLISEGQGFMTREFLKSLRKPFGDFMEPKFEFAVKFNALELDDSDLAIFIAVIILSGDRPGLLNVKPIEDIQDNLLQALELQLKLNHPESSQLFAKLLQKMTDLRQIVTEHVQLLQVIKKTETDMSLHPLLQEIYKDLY
Assay: In vitro agonist activity against human PPAR-gamma receptor in transactivation assay at 1000 nM
Type: functional
parameter_measured: Fold activation
Write the number on its own, no unit after it.

Incoming: Please tell me: Fold activation of C[S+]([O-])CCOc1ccc(-c2cc([S+](C)[O-])c(C#N)c(=O)o2)cc1 (stereo not drawn) , system Peroxisome proliferator-activated receptor gamma (Homo sapiens) (UniProt P37231)?
Outgoing: 27

Incoming: Record: `CSc1cc(-c2ccc(OCN3CCOCC3)cc2)oc(=O)c1C#N`
Outgoing: 5

Incoming: Next entry: `COC(=O)c1c(SC)cc(-c2ccc(OCCSC)cc2)oc1=O`
Outgoing: 44

Incoming: `CSc1cc(-c2ccc(OCCSc3ccccc3)cc2)oc(=O)c1C#N` ?
Outgoing: 14

Incoming: What do we get for `CSCCOc1ccc(-c2cc(SC)c(C#N)c(=O)o2)cc1` ?
Outgoing: 60

Incoming: Proceed to `CSc1cc(-c2ccc(OCCc3nccc4c3CCCC4)cc2)oc(=O)c1C#N`
Outgoing: 19

Incoming: Note, next up: CN(CCOc1ccc(CC2SC(=O)NC2=O)cc1)c1ccccn1 (stereo not drawn)
Outgoing: 176

Incoming: Same lookup for `CSc1cc(-c2ccc(OCCN(Cc3ccccc3)SC)cc2)oc(=O)c1C#N` , please.
Outgoing: 7

Incoming: // same read-out, input: `CSc1cc(-c2ccc(OCCN3CCCCC3)cc2)oc(=O)c1C#N`
Outgoing: 16

Incoming: Check `CSc1cc(-c2ccc(OCCN(C)C)cc2)oc(=O)c1C#N` too.
Outgoing: 7

Incoming: Moving on to `CSc1cc(-c2ccc(OCCN(C)Cc3ccccc3)cc2)oc(=O)c1C#N`
Outgoing: 7

Incoming: Then what about the compound `COC(=O)c1c(SC)cc(-c2ccc(OCCN3CCCCC3)cc2)oc1=O` ?
Outgoing: 17

Incoming: Same lookup for `CCSCCOc1ccc(-c2cc(SCC)c(C#N)c(=O)o2)cc1` , please.
Outgoing: 30

Measured values drawn from ChEMBL document CHEMBL1140250 for this set.
